# System: MDA-MB-231 cells
# assay notes: Cell Titer-Glo Luminescent Cell Viability assay, breast cancer cells
# Format: cell-based, Human
# details: half-maximal inhibition at 24 h
Measured pIC50, listed per entry.
Worth noting: pIC50 values are minus log10 of concentrations stated in mol/L.

[
  {
    "compound": "Cc1[nH]c(=O)c(C#N)c(C)c1N=Nc1ccc([N+](=O)[O-])cc1 [Compound Ig]",
    "target or test system": "MDA-MB-231 cells",
    "measure": "pIC50",
    "value measured": 4.14
  }
]

For the compound Cc1c(N=Nc2ccc([N+](=O)[O-])cc2)c(-c2ccccc2)[nH]c(=O)c1C#N [Ih] , report pIC50.
3.77

----------
Measured melting point, listed per entry.
Kindly write the number and append the unit.

[
  {
    "compound": "Cc1c(N=Nc2ccccc2F)c(-c2ccccc2)[nH]c(=O)c1C#N [Id]",
    "melting point": "225 °C"
  }
]

For the compound Cc1[nH]c(=O)c(C#N)c(C)c1N=Nc1ccccc1F [Ia] , report melting point.
257 °C

For the compound Cc1c(N=Nc2ccc(F)cc2)c(-c2ccccc2)[nH]c(=O)c1C#N [If] , report melting point.
252 °C

For the compound Cc1c(N=Nc2cccc(C(F)(F)F)c2)c(-c2ccccc2)[nH]c(=O)c1C#N [Ie] , report melting point.
237 °C

For the compound Cc1[nH]c(=O)c(C#N)c(C)c1N=Nc1ccc(F)cc1 [Ic] , report melting point.
272 °C

For the compound Cc1[nH]c(=O)c(C#N)c(C)c1N=Nc1cccc(C(F)(F)F)c1 [Ib] , report melting point.
265 °C

----------
# System: NCI-H460-Luc2 cells
# assay notes: Cell Titer-Glo Luminescent Cell Viability assay, lung cancer cells
# Type: cell-based, Human
# details: Homo sapiens; death of 50% of the cells; half-maximal inhibition at 24 h
measure: pIC50
Worth noting: pIC50 values are minus log10 of concentrations stated in mol/L.

For the compound Cc1c(N=Nc2ccc(F)cc2)c(-c2ccccc2)[nH]c(=O)c1C#N , report pIC50.
4.52

For the compound Cc1c(N=Nc2cccc(C(F)(F)F)c2)c(-c2ccccc2)[nH]c(=O)c1C#N , report pIC50.
4.44

The measurements presented in this section are drawn from patent US9051271B2.
